Ref: patent US6924305B2

Biological target: human tryptase
Experiment: Inhibition of human tryptase (apparent dissociation constant, chromogenic substrate tos-Gly-Pro-arg-pNA)
Type: biochemical
Conditions: pKiapp = -log Kiapp (mol/l), in presence of substrate, heparin 0.1-50 μg/ml, equilibrium conditions
Excerpt: The documented pathophysiological effects of mast cell tryptase are caused directly by the enzymatic activity of the protease. Accordingly, they are reduced or blocked by inhibitors which inhibit the enzymatic activity of the tryptase. […] This K1 value can be determined via the effect of the inhibitor on the tryptase-induced cleavage of a chromogenic peptide-p-nitroanilide substrate or a fluorogenic peptide-aminomethylcoumarin substrate. […]

Molecule	pKiapp
Cl.Cl.NCc1ccc(CCC(=O)N2CC(NC(=O)CN3CCC(=O)N(CC(=O)NC4CC(C(=O)OCc5ccccc5)N(C(=O)CCc5ccc(CN)cc5)C4)CCC3=O)CC2C(=O)OCc2ccccc2)cc1 (centres unmarked) [Compound 2]	9.22
COC(=O)C1CC(NC(=O)CN2CCC(=O)N(CC(=O)NC3CC(C(=O)OC)N(C(=O)CCc4ccc(CN)cc4)C3)CCC2=O)CN1C(=O)CCc1ccc(CN)cc1.Cl.Cl (centres unmarked) [Compound 1]	9.05
Cl.Cl.NCc1ccc(CCC(=O)N2CC(NC(=O)CN3CCC(=O)N(CC(=O)NC4CC(C(=O)O)N(C(=O)CCc5ccc(CN)cc5)C4)CCC3=O)CC2C(=O)O)cc1 (centres unmarked) [Compound 3]	7.43
Cl.Cl.NCc1ccc(CCC(=O)N2CC(NC(=O)CN3CCC(=O)N(CC(=O)NC4CC(C(N)=O)N(C(=O)CCc5ccc(CN)cc5)C4)CCC3=O)CC2C(N)=O)cc1 (centres unmarked) [Compound 5]	8.80
Cl.Cl.NCc1ccc(CCC(=O)N2CC(NC(=O)CN3CCC(=O)N(CC(=O)NC4CC(C(=O)NC5CC5)N(C(=O)CCc5ccc(CN)cc5)C4)CCC3=O)CC2C(=O)NC2CC2)cc1 (centres unmarked) [Compound 4]	9.66
